Parameter: pIC50. Scope: all listed entries.
Tested on: Onchocerca volvulus
Experiment: AntiOnchocerca activity O. volvulus L3 Molting assay: IC50 (uM)
Type: functional, organism-based
Answer as the number alone; pIC50 is minus log10 of concentration in mol/L.

Worked cases, answers included:
| structure.string | pIC50 |
| --- | --- |
| COc1ccc(N(CCc2cccc(C)n2)C(=O)C2CCCCC2)cc1 | 5.87 |
| CCCCc1ccc(NC(=O)Nc2ccc(O[C@H]3CCCC[C@@H]3N(C)c3ccccc3)c(F)c2)cc1 | 5.96 |

Pending compound:
Prompt: Report pIC50 for CC(=O)N(CCN(C(=O)c1ccc(F)cc1)c1ccccc1)c1ccccc1
Completion: 5.50
